pNF values, listed per item
Answer using only a numeral; do not append any unit.

COMPOUND	pNF
CC[C@H]1OC(=O)[C@H](C)[C@@H](O[C@H]2C[C@@](C)(OC)[C@@H](O)[C@H](C)O2)[C@H](C)[C@@H](O[C@@H]2O[C@H](C)C[C@H](N(C)C)[C@H]2O)[C@](C)(O)C[C@@H](C)C(=O)[C@H](C)[C@@H](O)[C@]1(C)O	1.494

Consider the record given below.
Query: Which pNF reading was recorded for the compound CC[C@H]1OC(=O)C[C@@H](O)[C@H](C)[C@@H](O[C@@H]2O[C@H](C)[C@@H](O)[C@H](N(C)C)[C@H]2O)[C@@H](CCN2C[C@H](C)C[C@H](C)C2)C[C@@H](C)C(=O)/C=C/C(C)=C/[C@@H]1CO[C@@H]1O[C@H](C)[C@@H](O)[C@@H](OC)[C@H]1OC ?
Result: 3.007
